assay: Toxicity in thioglycolate-induced mouse peritoneal macrophages assessed as induction of apoptosis after 24 hrs by flow cytometry; assay type: cell-based; conditions: peritoneal macrophage cell

| CHEM_SMILES | Activity |
| --- | --- |
| C=C1C(=O)[C@@]23CC[C@@H]4[C@](C)(C(=O)OC)CCC[C@@]4(C)C2=CC[C@@H]1C3 | Non-toxic |
| C=C1[C@H]2CC3=C([C@H](C2)[C@@H]1O)[C@]1(C)CCC[C@@](C)(C(=O)OC)[C@H]1CC3 | Non-toxic |
| C=C1C(=O)[C@@]23CC[C@H]4[C@@](C)(CCC[C@@]4(C)C(=O)OC)[C@@H]2CC[C@@H]1C3 | Non-toxic |
| COC(=O)[C@]1(C)CCC[C@@]2(C)C3=CC[C@@H]4C[C@]3(C=C4C=O)CC[C@H]12 | Toxic |
